- system: BCL6 (Homo sapiens (Human), UniProt P41182)
- assayText: BCL6 TR-FRET assay (BCL6-Avitag-Biotin / BCoR-Cy5 peptide)
- Assay type: binding
- studyConditions: class symbols A-D; read-out: IC50 (nM)***
I'd appreciate it if you could supply IC50 values for the items below.

Field: example entries. Status: answers known.
CNC(=O)COc1cc2cc(Nc3nc(N4CCC(OCCCCOc5cc(-c6scnc6C)ccc5CNC(=O)[C@@H]5C[C@@H](O)CN5C(=O)C(c5cc(C)no5)C(C)C)CC4)ncc3Cl)ccc2n(C)c1=O (stereo partly drawn) :: 10 to 50 nM
CC(=O)COc1cc2cc(Nc3nc(N4CCN(C5CCN(CCCOc6ccc7c(c6)CN(C6CCC(=O)NC6=O)C7=O)C5)CC4)ncc3Cl)ccc2n(C)c1=O (stereo not drawn) :: < 10 nM

Measured IC50, CNC(=O)COc1cc2cc(Nc3nc(N4CCCC(COc5ccc(C6CCN(CC#Cc7ccc8c(c7)CN(C7CCC(=O)NC7=O)C8=O)CC6)cc5)C4)ncc3Cl)ccc2n(C)c1=O (stereo not drawn) : 10 to 50 nM

Hello, the source for this data is patent US12310975B2, in case you need it.
